Values compiled from paper PMC11509930.

Substrate: c1ccc([C@H]2CO2)cc1
Assay: purified protein
Format: biochemical, Phanerodontia chrysosporium
Settings: 10-80 mM SO, 37 °C, buffer pH 8.0
Reported Km is given for each of the following proteins.
Include the unit after the number when you answer.

- Protein: "PchEHA (epoxide hydrolase) (Phanerodontia chrysosporium; C108S/G14A/K291R) (protein, catalytic triad D105/H308/D277) MDASLFKDFKTSRAFNYHYFYSPAKGPRPTLFFLHGNPSVATDWAQIVPHFTSRGYGVLAPDMLGYGDTDKPTDPALYVSSGMCRNLVDLLDHEGLEKVIAIGHDWGSLSVSRLASYYPERVIAYAFLAASFIGPIPPIPFDAFLEYIKQQVGYELYGYWKFYSEPGLDQFVRDHLDTFLSILWPSDPAVWKTRLAPTGALKQSALEGWTAPLAPYITEEFKKHHVEVFNKNGFEAPACYYRIMTSGLQAEDDKQILPERAVPPKDAPVFFGAANKDYICIPALAYATFKRDEWKDHKITIKEYDADHWLILSHADQVSRDLEAWIEGFASGGQ"
  Km: "51.04 ± 2.04 mM"

Qu. Write down Km measured for item PchEHA (epoxide hydrolase) (Phanerodontia chrysosporium) (protein, catalytic triad D105/H308/D277) MDASLFKDFKTSRGFNYHYFYSPAKGPRPTLFFLHGNPSVATDWAQIVPHFTSRGYGVLAPDMLGYGDTDKPTDPALYVSSGMCRNLVDLLDHEGLEKVIAIGHDWGCLSVSRLASYYPERVIAYAFLAASFIGPIPPIPFDAFLEYIKQQVGYELYGYWKFYSEPGLDQFVRDHLDTFLSILWPSDPAVWKTRLAPTGALKQSALEGWTAPLAPYITEEFKKHHVEVFNKNGFEAPACYYRIMTSGLQAEDDKQILPERAVPPKDAPVFFGAANKDYICIPALAYATFKKDEWKDHKITIKEYDADHWLILSHADQVSRDLEAWIEGFASGGQ
Ans. 39.23 ± 4.49 mM
